# TGI annotations
Test system: M14 melanoma
Test: NCI tumour cell line growth inhibition, 48 h

Asked: What does the record list as TGI for `CCOc1ccc(N=Cc2ccc3ccccc3n2)cc1` ?
Given back: > 100 µM

Asked: What does the record list as TGI for `Cc1ccc(-c2cc(=O)c3cc(C)c(C)c(C(=O)O)c3o2)cc1[N+](=O)[O-]` ?
Given back: > 100 µM

Asked: What does the record list as TGI for CCCCCCC/C=C1\CCC(CN(C)C)C1=O (centres undefined) ?
Given back: 23.6 µM

Asked: What does the record list as TGI for CCOC(=O)NC(=O)c1cn(C2OC(COC(=O)CCCCCCCCC(=O)OCC3OC(n4cc(C(=O)NC(=O)OCC)c(=O)[nH]c4=O)C4OC(C)(C)OC34)C3OC(C)(C)OC32)c(=O)[nH]c1=O (centres undefined) ?
Given back: > 100 µM

Asked: What does the record list as TGI for `COc1ccc(Br)c(C=Nc2cccc3cc(OC)c(OC)cc23)c1` ?
Given back: > 58.1 µM

Asked: What does the record list as TGI for `Nc1nc(CC2(O)CCCCC2)cc(-c2ccccc2)n1` ?
Given back: > 31.6 µM

Asked: What does the record list as TGI for N#CC(C(=O)O)C(c1c(Cl)cccc1Cl)C(C#N)C(=O)O (centres undefined) ?
Given back: > 100 µM

Asked: What does the record list as TGI for `C#CCN(Cc1nc2cc(C(F)(F)F)ccc2nc1-c1ccccc1)c1ccc(F)cc1` ?
Given back: > 100 µM

Asked: What does the record list as TGI for `COC(=O)CCCNC(=O)C(=O)c1c(O)c(O)c(C(C)C)c2cc(C)c(-c3c(C)cc4c(C(C)C)c(O)c(O)c(C(=O)C(=O)NCCCC(=O)OC)c4c3O)c(O)c12` ?
Given back: 2.31 µM

====

# TGI annotations
System: HOP-62 NSCLC
Test: NCI tumour cell line growth inhibition, 48 h
Enter your answer as a number in µM; do not include the unit.

COC(=O)CCCNC(=O)C(=O)c1c(O)c(O)c(C(C)C)c2cc(C)c(-c3c(C)cc4c(C(C)C)c(O)c(O)c(C(=O)C(=O)NCCCC(=O)OC)c4c3O)c(O)c12    4.21
CC(C)(C)C(=O)CC(=O)C(F)(F)C(F)(F)C(F)(F)F.[Ag]    50.9
COc1cccc(NC(=O)c2ccc(NC3=C(Cl)C(=O)N(Cc4ccccc4)C3=O)cc2)c1    34.8
CC(C)C[C@H](NC(=O)CCc1cccc2ccccc12)B(O)O    14.3

Asked: Notebook: pull reported TGI for HOP-62 NSCLC, entry C=C(C)[C@@H]1CC[C@]2(CN)CC[C@]3(C)[C@H](CC[C@@H]4[C@@]5(C)CCC(N)[C@@](C)(CO)[C@@H]5CC[C@]43C)[C@@H]12 (stereo partly specified)
Given back: 3.24

Asked: Notebook: pull reported TGI for HOP-62 NSCLC, entry `N[C@@H](Cc1ccc2oc3cc(=O)c4ccccc4c-3nc2c1)C(=O)O`
Given back: 48.2

====

Tested on: NCI-H23 lung
Experiment: NCI tumour cell line growth inhibition, 48 h
Where a SMILES comes first, the peptide text is derived from it. [ ]: non-standard residue; d: D form. The star is where a group is joined. ξ: configuration not given here. ξPhe(4-NO2) = NC(Cc1ccc([N+](=O)[O-])cc1)C(=O)O; Boc = CC(C)(C)OC(=O)*
# TGI annotations

CCC(=O)Nc1ncnc2ncn(C(=O)CC)c12    > 100 µM

Asked: Notebook: pull reported TGI for NCI-H23 lung, entry COc1c(N2CCN(CN3C(=O)C(=O)c4ccccc43)C(C)C2)c(F)cc2c(=O)c(C(=O)O)cn(C3CC3)c12 (stereo not drawn)
Given back: > 100 µM

Asked: Notebook: pull reported TGI for NCI-H23 lung, entry CCNC(=O)CNC(=O)C(Cc1ccc([N+](=O)[O-])cc1)NC(=O)OC(C)(C)C (stereo not drawn) (Boc-[ξPhe(4-NO2)]-Gly-NHEt)
Given back: > 100 µM

Asked: Notebook: pull reported TGI for NCI-H23 lung, entry `O=C1c2cc([N+](=O)[O-])sc2C(=O)c2cc([N+](=O)[O-])sc21`
Given back: 15.5 µM

Asked: Notebook: pull reported TGI for NCI-H23 lung, entry `N/C(=N\N=C\c1ccc(O)c(O)c1)NO`
Given back: > 100 µM

Asked: Notebook: pull reported TGI for NCI-H23 lung, entry `CC(=O)Oc1cc(Cl)c(OC(C)=O)c2c(OC(C)=O)c(C)c(O[Si](C)(C)C(C)(C)C)cc12`
Given back: 17.1 µM

Asked: Notebook: pull reported TGI for NCI-H23 lung, entry `Cc1ccccc1C[P+](c1ccccc1)(c1ccccc1)c1ccccc1`
Given back: > 100 µM

Asked: Notebook: pull reported TGI for NCI-H23 lung, entry C=C(C)[C@@H]1CC[C@]2(CN)CC[C@]3(C)[C@H](CC[C@@H]4[C@@]5(C)CCC(N)[C@@](C)(CO)[C@@H]5CC[C@]43C)[C@@H]12 (stereo partly drawn)
Given back: 3.61 µM

Asked: Notebook: pull reported TGI for NCI-H23 lung, entry COC1C(OC(C)=O)CC(=O)OC(C)C/C=C/C=C\C(O)C(C)CC(CC=O)C1OC1OC(C)C(OC2CC(C)(O)C(OC(=O)CC(C)C)C(C)O2)C(N(C)C)C1O (stereo not drawn)
Given back: > 100 µM

Asked: Notebook: pull reported TGI for NCI-H23 lung, entry `CC(C)(C)OC(=O)N1CCC(NC(=O)NC2CCN(C(=O)OC(C)(C)C)CC2)CC1`
Given back: > 100 µM

Asked: Notebook: pull reported TGI for NCI-H23 lung, entry `CN(/N=C/c1ccccc1C(=O)O)C1=NCCCCN1`
Given back: > 100 µM

Asked: Notebook: pull reported TGI for NCI-H23 lung, entry NC(Cc1c[nH]c2cc(F)ccc12)C(=O)O (stereo not drawn)
Given back: > 2500 µM

Asked: Notebook: pull reported TGI for NCI-H23 lung, entry `O=c1c(-c2nc3ccccc3[nH]2)cc2ccccc2n1Cc1cn(Cc2ccccc2Cl)nn1`
Given back: 24.3 µM

Asked: Notebook: pull reported TGI for NCI-H23 lung, entry C[C@H](C(O)CC(=O)C(C)(C)O)[C@H]1CC[C@@]2(C)[C@@H]3CC[C@H]4C(C)(C)[C@@H](OC5OC(COC6OC(CO)C(O)C(O)C6O)C(O)C(O)C5O)CC[C@]4(C)C3=CC[C@]12C (stereo partly drawn)
Given back: > 100 µM
